Biological target: T1, monovalent human Trop2-ECD antigen (human, UniProt P09758 27-274)
T1 construct: also called human Trop2-ECD (Extracellular Domain)
T1 sequence: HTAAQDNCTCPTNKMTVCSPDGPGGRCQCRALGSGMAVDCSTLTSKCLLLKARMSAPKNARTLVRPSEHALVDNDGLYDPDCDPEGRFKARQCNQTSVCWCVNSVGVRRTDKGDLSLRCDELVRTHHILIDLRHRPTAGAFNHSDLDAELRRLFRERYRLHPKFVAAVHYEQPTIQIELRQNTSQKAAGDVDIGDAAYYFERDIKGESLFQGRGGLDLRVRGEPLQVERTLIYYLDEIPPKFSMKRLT
Experiment: SPR (ProteOn XPR36), amine-coupled Fab, monovalent human Trop2-ECD as analyte, 25 C;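 note: GLC sensor chip, 3 min association then 15 min buffer dissociation, kinetics fit with a 1:1 Langmuir model, buffer of 10 mM sodium phosphate with 150 mM NaCl and 0.05% Tween-20 at pH 7.4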
Assay metric: koff (s⁻¹)
Give bare numbers, in s⁻¹.

Worked cases, answers included:
Name the recorded koff of the item h7E6_SVG19 Fab (Fab, V domains shown, also called DS (h7E6_SVG19)) VH: QVQLQESGPGLVKPSETLSLTCTVSGGSISSYGVHWIRQPPGKGLEWIGVIWTSGVTDYNSALMGRVTISVDTSKNQFSLKLSSVTAADTAVYYCARDSDYDRYTMDYWGQGTLVTVSS VL: DIVMTQSPDSLAVSLGERATINCRASKSVSTSGYSYMHWYQQKPGQPPKLLIYLASNLESGVPDRFSGSGSGTDFTLTISSLQAEDVAVYYCQHSRELPYTFGQGTKLEIK in your answer.
0.045

Name the recorded koff of the item h7E6_SVG20 Fab (Fab, V domains shown, also called DK (h7E6_SVG20)) VH: QVQLQESGPGLVKPSETLSLTCTVSGGSISSYGVHWIRQPPGKGLEWIGVIWTSGVTDYNSALMGRVTISVDTSKNQFSLKLSSVTAADTAVYYCARDKDYDRYTMDYWGQGTLVTVSS VL: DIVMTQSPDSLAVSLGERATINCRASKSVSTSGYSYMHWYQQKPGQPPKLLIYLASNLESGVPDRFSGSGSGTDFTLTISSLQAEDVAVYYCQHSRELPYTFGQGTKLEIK in your answer.
0.013

Attention now shifts to the item below.
Name the recorded koff of the item h7E6_SVG28 Fab (Fab, V domains shown, also called DL (h7E6_SVG28)) VH: QVQLQESGPGLVKPSETLSLTCTVSGGSISSYGVHWIRQPPGKGLEWIGVIWTSGVTDYNSALMGRVTISVDTSKNQFSLKLSSVTAADTAVYYCARDLDYDRYTMDYWGQGTLVTVSS VL: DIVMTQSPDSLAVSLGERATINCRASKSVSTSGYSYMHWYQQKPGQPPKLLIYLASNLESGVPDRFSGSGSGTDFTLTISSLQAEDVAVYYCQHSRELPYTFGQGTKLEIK in your answer.
0.016
